Target: Quadruplex DNA
Experiment: Binding affinity to mito 78 G4 DNA (unknown origin) assessed as dissociation constant measured upto 450 secs by surface plasmon resonance assay
Type: nucleic-acid assay
Exercise: for every item that follows, state its recorded pKd.
When answering, recall that pKd equals minus log10 of the concentration in mol/L, and write that number alone.

// query pKd value for entry `C(=C\c1ccc2ccccc2[n+]1CCCCCCCC[n+]1c(/C=C/c2ccccc2)ccc2ccccc21)/c1ccccc1`
6.54

Moving on to `CCn1c2ccccc2c2cc(/C=C/c3ccc4ccccc4[n+]3CCCCCCCC[n+]3c(/C=C/c4ccc5c(c4)c4ccccc4n5CC)ccc4ccccc43)ccc21`
7.70

Moving on to `CSc1ccc(/C=C/c2ccc3ccccc3[n+]2CCCCCCCC[n+]2c(/C=C/c3ccc(SC)cc3)ccc3ccccc32)cc1`
7.30

Moving on to `C(=C\c1ccc2ccccc2[n+]1CCCCCCCC[n+]1c(/C=C/c2ccc(N3CCOCC3)cc2)ccc2ccccc21)/c1ccc(N2CCOCC2)cc1`
6.92

====

Biological target: DNA
Assay: Binding affinity to HP19 DNA (non-G4 DNA) (unknown origin) assessed as dissociation constant measured upto 150 secs by isothermal titration calorimetry assay
Format: nucleic-acid assay
endpoint-name: Kd

// query Kd value for entry `C(=C\c1ccc2ccccc2[n+]1CCCCCCCC[n+]1c(/C=C/c2ccc(N3CCCCC3)cc2)ccc2ccccc21)/c1ccc(N2CCCCC2)cc1.[I-].[I-]`
> 4.7 µM

====

Target: Quadruplex DNA
Experiment: Binding affinity to mito 55 G4 DNA (unknown origin) assessed as dissociation constant measured upto 450 secs by surface plasmon resonance assay
Format: nucleic-acid assay
Exercise: for every item that follows, state its recorded Kd.
Number only, in nM; omit the unit.

// query Kd value for entry `C(=C\c1ccc2ccccc2[n+]1CCCCCCCC[n+]1c(/C=C/c2cc3ccccc3[nH]2)ccc2ccccc21)/c1cc2ccccc2[nH]1`
220

Moving on to `CCn1c2ccccc2c2cc(/C=C/c3ccc4ccccc4[n+]3CCCCCCCC[n+]3c(/C=C/c4ccc5c(c4)c4ccccc4n5CC)ccc4ccccc43)ccc21`
520

Moving on to `C(=C\c1ccc2ccccc2[n+]1CCCCCCCC[n+]1c(/C=C/c2ccc(N3CCCCC3)cc2)ccc2ccccc21)/c1ccc(N2CCCCC2)cc1.[I-].[I-]`
170

Moving on to `C(=C\c1ccc2ccccc2[n+]1CCCCCCCC[n+]1c(/C=C/c2ccc(N3CCCC3)cc2)ccc2ccccc21)/c1ccc(N2CCCC2)cc1`
170

Moving on to `Cc1ccc(/C=C/c2ccc3ccccc3[n+]2CCCCCCCC[n+]2c(/C=C/c3ccc(C)cc3)ccc3ccccc32)cc1`
910

Moving on to `C(=C\c1ccc2ccccc2[n+]1CCCCCCCC[n+]1c(/C=C/c2c[nH]c3ccccc23)ccc2ccccc21)/c1c[nH]c2ccccc12`
610

Moving on to `CN(C)c1ccc(/C=C/c2ccc3ccccc3[n+]2CCCCCCCC[n+]2c(/C=C/c3ccc(N(C)C)cc3)ccc3ccccc32)cc1`
130

Moving on to `CSc1ccc(/C=C/c2ccc3ccccc3[n+]2CCCCCCCC[n+]2c(/C=C/c3ccc(SC)cc3)ccc3ccccc32)cc1`
460

Moving on to `C(=C\c1ccc2ccccc2[n+]1CCCCCCCC[n+]1c(/C=C/c2ccccc2)ccc2ccccc21)/c1ccccc1`
580

Moving on to `C(=C\c1ccc2ccccc2[n+]1CCCCCCCC[n+]1c(/C=C/c2ccc(N3CCOCC3)cc2)ccc2ccccc21)/c1ccc(N2CCOCC2)cc1`
470

====

Target: Quadruplex DNA
Experiment: Binding affinity to mito 55 G4 DNA (unknown origin) assessed as dissociation constant measured upto 150 secs by isothermal titration calorimetry assay
Format: nucleic-acid assay
endpoint-name: Kd
Write the figure, then the unit, nothing else.

// query Kd value for entry `C(=C\c1ccc2ccccc2[n+]1CCCCCCCC[n+]1c(/C=C/c2ccc(N3CCCCC3)cc2)ccc2ccccc21)/c1ccc(N2CCCCC2)cc1.[I-].[I-]`
60 nM

====

Molecular target: Quadruplex DNA
Assay: Binding affinity to mito 81 G4 DNA (unknown origin) assessed as dissociation constant measured upto 150 secs by isothermal titration calorimetry assay
Type: nucleic-acid assay
endpoint-name: Kd (nM)
Number only, in nM; omit the unit.

// query Kd value for entry `C(=C\c1ccc2ccccc2[n+]1CCCCCCCC[n+]1c(/C=C/c2ccc(N3CCCCC3)cc2)ccc2ccccc21)/c1ccc(N2CCCCC2)cc1.[I-].[I-]`
60

====

Exercise: for every item that follows, state its recorded IC50 at 48 h.
Test: Antiproliferative activity against human BJ cells measured after 48 hrs by MTT assay
Type: toxicity, cell-based
Settings: BJ cells

// query IC50 at 48 h value for entry `C(=C\c1ccc2ccccc2[n+]1CCCCCCCC[n+]1c(/C=C/c2c[nH]c3ccccc23)ccc2ccccc21)/c1c[nH]c2ccccc12`
> 40 µM

Moving on to `CN(C)c1ccc(/C=C/c2ccc3ccccc3[n+]2CCCCCCCC[n+]2c(/C=C/c3ccc(N(C)C)cc3)ccc3ccccc32)cc1`
> 40 µM

Moving on to `CCn1c2ccccc2c2cc(/C=C/c3ccc4ccccc4[n+]3CCCCCCCC[n+]3c(/C=C/c4ccc5c(c4)c4ccccc4n5CC)ccc4ccccc43)ccc21`
> 40 µM

====

Biological target: Quadruplex DNA
Assay: Binding affinity to mito 0.5-15 G4 DNA (unknown origin) assessed as dissociation constant measured upto 150 secs by isothermal titration calorimetry assay
Format: nucleic-acid assay
endpoint-name: pKd
When answering, recall that pKd equals minus log10 of the concentration in mol/L, and write that number alone.

// query pKd value for entry `C(=C\c1ccc2ccccc2[n+]1CCCCCCCC[n+]1c(/C=C/c2ccc(N3CCCCC3)cc2)ccc2ccccc21)/c1ccc(N2CCCCC2)cc1.[I-].[I-]`
7.22

====

Target: DNA
Experiment: Binding affinity to SS19 DNA (non-G4 DNA) (unknown origin) assessed as dissociation constant measured upto 150 secs by isothermal titration calorimetry assay
Format: nucleic-acid assay
pKd: −log10 of the molar value.
endpoint-name: pKd

// query pKd value for entry `C(=C\c1ccc2ccccc2[n+]1CCCCCCCC[n+]1c(/C=C/c2ccc(N3CCCCC3)cc2)ccc2ccccc21)/c1ccc(N2CCCCC2)cc1.[I-].[I-]`
< 5.33

====

Target: Quadruplex DNA
Experiment: Binding affinity to mito 29 G4 DNA (unknown origin) assessed as dissociation constant measured upto 450 secs by surface plasmon resonance assay
Format: nucleic-acid assay
Exercise: for every item that follows, state its recorded Kd.
Number only, in µM; omit the unit.

Report Kd for `C(=C\c1ccc2ccccc2[n+]1CCCCCCCC[n+]1c(/C=C/c2ccc(N3CCOCC3)cc2)ccc2ccccc21)/c1ccc(N2CCOCC2)cc1` tested on Quadruplex DNA.
0.24

Moving on to `C(=C\c1ccc2ccccc2[n+]1CCCCCCCC[n+]1c(/C=C/c2ccc(N3CCCCC3)cc2)ccc2ccccc21)/c1ccc(N2CCCCC2)cc1.[I-].[I-]`
0.11

Moving on to `CN(C)c1ccc(/C=C/c2ccc3ccccc3[n+]2CCCCCCCC[n+]2c(/C=C/c3ccc(N(C)C)cc3)ccc3ccccc32)cc1`
0.14

Moving on to `Cc1ccc(/C=C/c2ccc3ccccc3[n+]2CCCCCCCC[n+]2c(/C=C/c3ccc(C)cc3)ccc3ccccc32)cc1`
0.72

Moving on to `C(=C\c1ccc2ccccc2[n+]1CCCCCCCC[n+]1c(/C=C/c2cc3ccccc3[nH]2)ccc2ccccc21)/c1cc2ccccc2[nH]1`
0.14

Moving on to `C(=C\c1ccc2ccccc2[n+]1CCCCCCCC[n+]1c(/C=C/c2ccccc2)ccc2ccccc21)/c1ccccc1`
0.5

Moving on to `C(=C\c1ccc2ccccc2[n+]1CCCCCCCC[n+]1c(/C=C/c2c[nH]c3ccccc23)ccc2ccccc21)/c1c[nH]c2ccccc12`
0.23
